System: HepG2
method.summary: GSK_TCMDC: Percent inhibition of human HepG2 cell line. Test compounds present at 10uM.
Assay type: functional
Non-standard residues stand in square brackets, D forms with d. Residues, ends and D or L forms follow the SMILES beside them. *: point of attachment. Butanoyl(4-(4-HOPh)) = O=C(CCCc1ccc(O)cc1)*
measured.parameter: Inhibition (%)
Numeric answer only, unit % assumed.

-- ask What value of Inhibition has been recorded for this entry: "CC(C)(NCc1ccc(OC(F)(F)F)cc1)c1nc(-c2ccc(Cl)c(O)c2)c(-c2ccncc2)[nH]1.Cl"
-- reply 65

-- ask What value of Inhibition has been recorded for this entry: "Cc1cc(O)c(CNC2CCCCC2)cc1C.Cl"
-- reply 6

-- ask What value of Inhibition has been recorded for this entry: "N=C(N)NC(=O)Nc1cc(Br)c(Cl)c(Br)c1"
-- reply 0

-- ask What value of Inhibition has been recorded for this entry: "N#Cc1ccc(N/C(=N\c2cccc(Cl)c2Cl)NCc2ccc(Cl)cc2Cl)c(O)c1"
-- reply 3

-- ask What value of Inhibition has been recorded for this entry: "Cc1cc(C)c2c(c1)C(=NO)CCN2"
-- reply 2

-- ask What value of Inhibition has been recorded for this entry: "O=C(O)C(F)(F)F.c1cc(CNCC2CCN(CC3CCCCC3)CC2)cc(-n2ccnc2)c1"
-- reply 18

-- ask What value of Inhibition has been recorded for this entry: "Cc1cc(Cl)c(S(=O)(=O)N(C)c2ccccc2)cc1OCC(=O)NC1CCCCC1"
-- reply 3

-- ask What value of Inhibition has been recorded for this entry: "Cl.Nc1ncc(-c2ccccc2)cc1-c1nc2cc(Cl)c(F)cc2[nH]1"
-- reply 37

-- ask What value of Inhibition has been recorded for this entry: "Cc1nnsc1C(=O)Nc1ccc(-c2ccc(-c3nc4ccccc4[nH]3)s2)cc1"
-- reply 49

-- ask What value of Inhibition has been recorded for this entry: "CC(C)(C)c1ccc(-c2cc3c(ccc4nc(N)nc(N)c43)[nH]2)cc1"
-- reply 100

-- ask What value of Inhibition has been recorded for this entry: O=C1C(C2CCC(c3ccc(Cl)cc3)CC2)=C2OCC3COC2(O3)c2ccccc21 (stereo not drawn)
-- reply 7

-- ask What value of Inhibition has been recorded for this entry: COc1ccc2nccc(C(=O)NC3CCC(CCN4CCc5cc(C#N)ccc5C4)CC3)c2c1.Cl (stereo not drawn)
-- reply 12

-- ask What value of Inhibition has been recorded for this entry: "Fc1ccc(Nc2ccnc3cc(-c4cccc(CN5CCCCC5)c4)ccc23)c(Cl)c1"
-- reply 3

-- ask What value of Inhibition has been recorded for this entry: Cc1ccccc1C1CCN(C2CCC(NC(=O)/C=C/c3ccc(C(F)(F)F)cc3)CC2)CC1 (stereo not drawn)
-- reply 64

-- ask What value of Inhibition has been recorded for this entry: "CCc1cccc2c(C#N)cn(CC(=O)Nc3ccc(OC)cc3)c12"
-- reply 0

-- ask What value of Inhibition has been recorded for this entry: "c1ccc(-c2cc3cccc(-c4nc5cnccc5[nH]4)c3o2)cc1"
-- reply 37

-- ask What value of Inhibition has been recorded for this entry: "COc1cc(NC(=O)CCCN2CCN(c3cccc(Cl)c3Cl)CC2)ccc1N1CCN(C(C)C)CC1.Cl"
-- reply 31

-- ask What value of Inhibition has been recorded for this entry: "O=C1OC(c2cc3ccccc3n2S(=O)(=O)c2ccccc2)(c2cc3ccccc3n2S(=O)(=O)c2ccccc2)c2ccccc21"
-- reply 1

-- ask What value of Inhibition has been recorded for this entry: "COc1ccc2nc(C)cc(Nc3ccc(Oc4ccc5ccccc5c4Cl)c(Cl)c3)c2c1"
-- reply 32

-- ask What value of Inhibition has been recorded for this entry: CN(C)Cc1cccc(-c2ccc(NC(=O)c3ccc4c(=O)n(CC5CCCO5)cnc4c3)cc2)c1 (stereo not drawn)
-- reply 28

-- ask What value of Inhibition has been recorded for this entry: CN1CCc2cc(Br)c(O)cc2C1Cc1ccccc1Cl.Cl (stereo not drawn)
-- reply 2

-- ask What value of Inhibition has been recorded for this entry: CN1CCCC(COc2cc3c(cc2Br)CCN3C(=O)Nc2ccc(-c3ccncc3)c(Cl)c2)C1 (stereo not drawn)
-- reply 99

-- ask What value of Inhibition has been recorded for this entry: "Cc1cccc2[nH]cc(C3CCN(CCC4CCN(C(=O)/C=C/c5ccc(Cl)c(Cl)c5)CC4)CC3)c12"
-- reply 13

-- ask What value of Inhibition has been recorded for this entry: CC(C)C(NC(=O)c1c(F)cccc1F)C(=O)Nc1ccc(Cc2nc3ccccc3s2)cc1 (stereo not drawn)
-- reply 0

-- ask What value of Inhibition has been recorded for this entry: "Cc1cc(Nc2cc(Cl)cc(Cl)c2)nc(N)n1"
-- reply 0

-- ask What value of Inhibition has been recorded for this entry: "NC(=O)c1cnc2ccc(-c3cncs3)cc2c1Nc1ccc(F)c(Cl)c1"
-- reply 3

-- ask What value of Inhibition has been recorded for this entry: CC1CN(CC(O)Cn2c3ccc(Br)cc3c3cc(Br)ccc32)CC(C)O1 (stereo not drawn)
-- reply 0

-- ask What value of Inhibition has been recorded for this entry: "O=C(Cc1ccc(Nc2nccc(Nc3cccc4[nH]ncc34)n2)cc1)Nc1ccc(C(F)(F)F)cc1"
-- reply 12

-- ask What value of Inhibition has been recorded for this entry: "Cc1csc2nc(-c3ccccn3)nc(Nc3ccc4ncsc4c3)c12.Cl"
-- reply 0

-- ask What value of Inhibition has been recorded for this entry: CC(C)(C(=O)Nc1ccc(C2CCC(NCC3CC3)CC2)c(Cl)c1)c1cccc(OC(F)F)c1 (stereo not drawn)
-- reply 34

-- ask What value of Inhibition has been recorded for this entry: O=C(NCC(=O)N1CCC[C@H]1C(=O)O)[C@@H](Cc1ccccc1)NC(=O)[C@@H]1CCCN1C(=O)CCCc1ccc(O)cc1 ({Butanoyl(4-(4-HOPh))}-P[dF]GP-OH)
-- reply 1

-- ask What value of Inhibition has been recorded for this entry: "C(=N\Nc1nccc2sc(-c3ccccc3)cc12)/c1cccnc1"
-- reply 0

-- ask What value of Inhibition has been recorded for this entry: "COC(=O)c1cccc(C#CCCOCCCCCCNC[C@H](O)c2cc(Cl)c(N)c(Cl)c2)c1"
-- reply 12

-- ask What value of Inhibition has been recorded for this entry: OC(CNC1CCCCC1)Cn1c2ccccc2c2ccccc21 (stereo not drawn)
-- reply 11

-- ask What value of Inhibition has been recorded for this entry: "Nc1nc(O)c2cc(CN(C=O)c3ccc(C(=O)N[C@@H](CCC(=O)O)C(=O)O)cc3)ccc2n1"
-- reply 0

-- ask What value of Inhibition has been recorded for this entry: "CCOc1cc(C(=O)Nc2ccc3nc(N4CCCCC4)cc(C)c3c2)cc(OCC)c1OCC"
-- reply 26

-- ask What value of Inhibition has been recorded for this entry: "CCOC(=O)NCCSC(C)(C)[C@H](NC(=O)[C@H](Cc1cc2ccccc2s1)[C@H](CC)N(O)C=O)C(=O)Nc1nccs1"
-- reply 11

-- ask What value of Inhibition has been recorded for this entry: "CC1=C(C(=O)OCCOCc2ccccc2)C(c2ccccc2C(F)(F)F)C(C(=O)OCCOCc2ccccc2)=C(C)N1"
-- reply 0
